Known IC50 of a selection of compounds
target: IDH1 R132C (Homo sapiens, UniProt O75874, R132C); assay: Enzymatic inhibition assay, mutant IDH1 R132C (NADPH depletion coupled to diaphorase/resazurin); details: IDH1 R132C enzyme, IC50 class
Sequence (O75874 whole entry R132C): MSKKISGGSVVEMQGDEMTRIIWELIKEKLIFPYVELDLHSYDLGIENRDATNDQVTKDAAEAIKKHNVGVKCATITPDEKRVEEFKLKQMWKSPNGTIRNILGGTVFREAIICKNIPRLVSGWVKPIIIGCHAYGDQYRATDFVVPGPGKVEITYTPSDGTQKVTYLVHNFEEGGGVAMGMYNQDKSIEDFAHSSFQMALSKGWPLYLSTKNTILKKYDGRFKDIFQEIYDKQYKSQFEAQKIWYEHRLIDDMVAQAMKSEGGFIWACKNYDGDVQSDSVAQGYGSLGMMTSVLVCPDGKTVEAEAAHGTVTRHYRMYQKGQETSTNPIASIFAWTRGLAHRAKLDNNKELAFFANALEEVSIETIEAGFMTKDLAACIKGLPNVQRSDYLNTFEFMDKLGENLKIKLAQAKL

## Task Using the record for CCOc1ccc(Cl)c(-n2c(C=C(C)C)c(C(=O)N3CC4CCC(C3)N4)cc(-c3nc(-c4ccc(Cl)cc4)cs3)c2=O)c1 (single isomer, unassigned) [Compound 126-2] , state its measured IC50.
## Result 1 to 5 µM

Next:
## Task Using the record for CCc1cccc(CC)c1-n1c(C=C(C)C)c(C(=O)N2CCN[C@H](C)C2)cc(-c2nc(-c3ccc(C(F)F)cc3)cs2)c1=O , state its measured IC50.
## Result < 0.3 µM

## Task Using the record for CCOc1ccc(Cl)c(-n2c(C=C(C)C)c(C(=O)N3C[C@H]4CC[C@@H](C3)N4)cc(-c3nc(-c4ccc(C(F)(F)F)cc4)cs3)c2=O)c1 , state its measured IC50.
## Result < 0.3 µM

## Task Using the record for CCc1ccc(Cl)cc1-n1c(C=C(C)C)c(C(=O)N2CCNCC2)cc(-c2nc(-c3ccc(Cl)cc3)cs2)c1=O (single isomer, unassigned) [Compound 144-2] , state its measured IC50.
## Result 0.3 to 1 µM

## Task Using the record for CCc1cccc(CC)c1-n1c(C=C(C)C)c(C(=O)N2CCNC[C@@H]2C)cc(-c2nc(-c3ccc(Cl)cc3)cs2)c1=O , state its measured IC50.
## Result < 0.3 µM

## Task Using the record for CCOc1ccc(Cl)cc1-n1c(C=C(C)C)c(C(=O)N2CCNCC2)cc(-c2nc(-c3ccc(C#N)cc3)cs2)c1=O (single isomer, unassigned) [Compound 140-1] , state its measured IC50.
## Result < 0.3 µM

----------
Known pIC50 of a selection of compounds
target: IDH1 R132C (Homo sapiens, UniProt O75874, R132C); assay: Enzymatic inhibition assay, mutant IDH1 R132C (NADPH depletion coupled to diaphorase/resazurin); details: IDH1 R132C enzyme, IC50 class
pIC50: −log10 of the molar value.

## Task Enter recorded pIC50 with IDH1 R132C (Homo sapiens, UniProt O75874, R132C) for CCc1ccc(Cl)cc1-n1c(C=C(C)C)c(C(=O)N2CC3CCC(C2)N3)cc(-c2nc(-c3ccc(Cl)cc3)cs2)c1=O (single isomer, unassigned) [Compound 133-1] here.
## Result > 6.52

## Task Enter recorded pIC50 with IDH1 R132C (Homo sapiens, UniProt O75874, R132C) for CCOc1ccc(Cl)cc1-n1c(C=C(C)C)c(C(=O)N2CCNC[C@H]2C)cc(-c2nc(-c3ccc(C(F)(F)F)cc3)cs2)c1=O here.
## Result > 6.52

## Task Enter recorded pIC50 with IDH1 R132C (Homo sapiens, UniProt O75874, R132C) for CCOc1ccc(Cl)cc1-n1c(C=C(C)C)c(C(=O)N2CC3CCC(C2)N3)cc(-c2nc(-c3ccc(C#N)cc3)cs2)c1=O (single isomer, unassigned) [Compound 141-1] here.
## Result > 6.52

## Task Enter recorded pIC50 with IDH1 R132C (Homo sapiens, UniProt O75874, R132C) for CCOc1ccc(Cl)cc1-n1c(C=C(C)C)c(C(=O)N2CCN[C@H](C)C2)cc(-c2nc(-c3ccc(C(F)(F)F)cc3)cs2)c1=O here.
## Result > 6.52

## Task Enter recorded pIC50 with IDH1 R132C (Homo sapiens, UniProt O75874, R132C) for CCOc1ccc(Cl)cc1-n1c(C=C(C)C)c(C(=O)N2CCNC[C@@H]2C)cc(-c2nc(-c3ccc(C(F)(F)F)cc3)cs2)c1=O here.
## Result 6.00 to 6.52

Kindly review the next compound as well.
## Task Enter recorded pIC50 with IDH1 R132C (Homo sapiens, UniProt O75874, R132C) for CCc1ccc(OC)cc1-n1c(C=C(C)C)c(C(=O)N2CCNCC2)cc(-c2nc(-c3ccc(Cl)cc3)cs2)c1=O (single isomer, unassigned) here.
## Result 6.00 to 6.52

----------
target: IDH1 R132H (Homo sapiens, UniProt O75874, R132H); assay: Enzymatic inhibition assay, mutant IDH1 R132H (NADPH depletion coupled to diaphorase/resazurin); settings: IDH1 R132H enzyme, IC50 class
Sequence (O75874 whole entry R132H): as the sequence (O75874 whole entry R132C) above, with C132H counted along it
pIC50: −log10 of the molar value.
Known pIC50 of a selection of compounds

The examples below pair each entry with its known result.
## Task Using the record for CCc1ccc(Cl)cc1-n1c(CC(C)C)c(C(=O)N2CCNCC2)cc(-c2nc(-c3ccc(C(F)F)cc3)cs2)c1=O , state its measured pIC50.
## Result 6.00 to 6.52

## Task Using the record for CCOc1ccc(Cl)c(-n2c(C=C(C)C)c(C(=O)N3CCNCC3)cc(-c3nc(-c4ccc(Cl)cc4)cs3)c2=O)c1 (single isomer, unassigned) [Compound 139-1] , state its measured pIC50.
## Result > 6.52

Kindly review the next compound as well.
## Task Using the record for CCOc1ccc(N(CC)CC)cc1-n1c(C=C(C)C)c(C(=O)N2C[C@H]3CC[C@@H](C2)N3)cc(-c2nc(-c3ccc(Cl)cc3)cs2)c1=O , state its measured pIC50.
## Result > 6.52

----------
Known IC50 of a selection of compounds
target: IDH1 R132C (Homo sapiens, UniProt O75874, R132C); test: Enzymatic inhibition assay, mutant IDH1 R132C (NADPH depletion coupled to diaphorase/resazurin); format: biochemical; details: IDH1 R132C enzyme, IC50 class

## Task Using the record for CCOc1ccc(Cl)cc1-n1c(C=C(C)C)c(C(=O)N2CCNCC2)cc(-c2nc(-c3ccc(Cl)cc3)cs2)c1=O (single isomer, unassigned) [Compound 143-1] , state its measured IC50.
## Result 300 to 1000 nM

## Task Using the record for CCOc1ccc(C#N)cc1-n1c(C=C(C)C)c(C(=O)N2CCNCC2)cc(-c2nc(-c3ccc(Cl)cc3)cs2)c1=O [Compound 136] , state its measured IC50.
## Result < 300 nM

## Task Using the record for CCc1ccc(OC)cc1-n1c(C=C(C)C)c(C(=O)N2C[C@H]3CC[C@@H](C2)N3)cc(-c2nc(-c3ccc(Cl)cc3)cs2)c1=O (single isomer, unassigned) [Compound 114-2] , state its measured IC50.
## Result 300 to 1000 nM

## Task Using the record for CC(C)=Cc1c(C(=O)N2CCNCC2)cc(-c2nc(-c3ccc(Cl)cc3)cs2)c(=O)n1-c1cc(N(C)C)ccc1Cl [Compound 147] , state its measured IC50.
## Result < 300 nM

## Task Using the record for CCc1ccc(Cl)cc1-n1c(C=C(C)C)c(C(=O)N2CCNCC2)cc(-c2nc(-c3ccc(Cl)cc3)cs2)c1=O [Compound 101] , state its measured IC50.
## Result < 300 nM

## Task Using the record for CCc1ccc(Cl)cc1-n1c(C=C(C)C)c(C(=O)N2CCNCC2)cc(-c2nc(-c3ccc(Cl)cc3)cs2)c1=O (single isomer, unassigned) [Compound 144-1] , state its measured IC50.
## Result < 300 nM

## Task Using the record for CCOc1ccc(Cl)c(-n2c(C=C(C)C)c(C(=O)N3CCNCC3)cc(-c3nc(-c4ccc(OC)nc4)cs3)c2=O)c1 [Compound 137] , state its measured IC50.
## Result < 300 nM

## Task Using the record for CCc1cccc(CC)c1-n1c(C=C(C)C)c(C(=O)N2CC3CCC(C2)N3)cc(-c2nc(-c3ccc(C(F)F)cc3)cs2)c1=O [Compound 116] , state its measured IC50.
## Result < 300 nM

## Task Using the record for CCOc1ccc(C#N)cc1-n1c(C=C(C)C)c(C(=O)N2CC3CCC(C2)N3)cc(-c2nc(-c3ccc(Cl)cc3)cs2)c1=O [Compound 135] , state its measured IC50.
## Result < 300 nM

## Task Using the record for CCOc1ccc(Cl)cc1-n1c(C=C(C)C)c(C(=O)N2C[C@H]3CC[C@@H](C2)N3)cc(-c2nc(-c3ccc(C(F)F)cc3)cs2)c1=O [Compound 125] , state its measured IC50.
## Result < 300 nM

Next:
## Task Using the record for CNc1ccc(Cl)c(-n2c(C=C(C)C)c(C(=O)N3CCNCC3)cc(-c3nc(-c4ccc(Cl)cc4)cs3)c2=O)c1 [Compound 148] , state its measured IC50.
## Result < 300 nM

## Task Using the record for CCc1ccc(OC)cc1-n1c(C=C(C)C)c(C(=O)N2CCNCC2)cc(-c2nc(-c3ccc(C(F)F)cc3)cs2)c1=O [Compound 104] , state its measured IC50.
## Result < 300 nM

## Task Using the record for CCc1ccc(OC)cc1-n1c(C=C(C)C)c(C(=O)N2CC3CCC(C2)N3)cc(-c2nc(-c3ccc(Cl)cc3)cs2)c1=O [Compound 114] , state its measured IC50.
## Result < 300 nM
